For reference, pKi measured on β-secretase (BACE) (Homo sapiens):
pKi: −log10 of the molar value. Counter-ions that a name gives are not always drawn.
PARAMETER_MEASURED: pKi

Some solved entries appear below for comparison.
CC(C)C(CCC(=O)N(CCO)C1CCC(C(=O)O)CC1)N1Cc2cc(Oc3ccccc3)ncc2N=C1N (stereo not shown) [Compound 20]	7.89
CN(C(=O)CCC(C1CCOCC1)N1Cc2cc(Oc3ccccc3)ncc2N=C1N)C1CCC(C(=O)O)CC1 (stereo not shown) [Compound 26]	7.66

A. CC(C)[C@H](CCC(=O)N(C)[C@H]1CC[C@@H](C(=O)O)CC1)N1Cc2cc(Oc3ccccc3)ncc2N=C1N [Compound 43]
B. CC(C)[C@H](CCC(=O)N(C)[C@@H](COCc1ccccc1)C(=O)O)N1Cc2cc(Oc3ccccc3)ncc2N=C1N [Compound 52, trifluoroacetate salt]
Lab notebook, comparison: A versus B , higher pKi goes to which? Answer with the label corresponding to your selection.
B

====

Molecular target: human BACE-1 (Homo sapiens)
Assay: CEREP BACE Inhibition Assay
Assay type: biochemical
Settings: 1.0 μM; percent inhibition of the control activity; recombinant enzyme; read-out: % Inhibition @ 1.0 μM
Procedure: More specifically the assay, run at 50 μL in a 96 well plate, evaluated the effect of test compound on the activity of the human BACE-1 quantified by measuring the formation of Mca-S-E-V-N-L-NH2 from […], using a recombinant enzyme. […] The standard inhibitory reference compound was OM99-2, which was tested in each experiment at several concentrations to obtain an inhibition curve from which its IC50 value was calculated.
PARAMETER_MEASURED: inhibition at 1 µM (%)

Some solved entries appear below for comparison.
NC1=Nc2cnc(Oc3ccccc3)cc2CN1[C@@H](CCC(=O)N(CCOCCOCCOCCO)C1CCCCC1)C1CCCCC1 [Compound 176]	101
NC1=Nc2cnc(Oc3ccccc3)cc2CN1[C@@H](CCC(=O)NCC1CC1)C1CCCCC1 [Compound 212]	99
CC(C)[C@H](COCCC1CCCCC1)N1Cc2cc(Oc3ccccc3)ncc2N=C1N [Compound 232]	99
CC(C)(C)CCN(CCN)C(=O)CC[C@@H](C1CCCCC1)N1Cc2cc(Oc3ccccc3)ncc2N=C1N [Compound 146]	100
C[C@H](CO)N(C)C(=O)CC[C@@H](C1CCCCC1)N1Cc2cc(Oc3ccccc3)ncc2N=C1N [Compound 183]	70

1. CC(C)(C)CNC(=O)C[C@@H](C1CCCCC1)N1Cc2cc(Oc3ccccc3)ncc2N=C1N [Compound 200]
2. NC1=Nc2cnc(Oc3ccccc3)cc2CN1[C@@H](CCCNCC1CC1)C1CCCCC1 [Compound 213]
Lab notebook, comparison: 1 versus 2 , higher inhibition at 1 µM goes to which? Answer with the label corresponding to your selection.
2

====

molecular target: human BACE-1 (Homo sapiens, UniProt P56817); assay: CEREP BACE Inhibition Assay; assay type: biochemical; conditions: recombinant enzyme; read-out: IC50
Sequence (P56817 46-501): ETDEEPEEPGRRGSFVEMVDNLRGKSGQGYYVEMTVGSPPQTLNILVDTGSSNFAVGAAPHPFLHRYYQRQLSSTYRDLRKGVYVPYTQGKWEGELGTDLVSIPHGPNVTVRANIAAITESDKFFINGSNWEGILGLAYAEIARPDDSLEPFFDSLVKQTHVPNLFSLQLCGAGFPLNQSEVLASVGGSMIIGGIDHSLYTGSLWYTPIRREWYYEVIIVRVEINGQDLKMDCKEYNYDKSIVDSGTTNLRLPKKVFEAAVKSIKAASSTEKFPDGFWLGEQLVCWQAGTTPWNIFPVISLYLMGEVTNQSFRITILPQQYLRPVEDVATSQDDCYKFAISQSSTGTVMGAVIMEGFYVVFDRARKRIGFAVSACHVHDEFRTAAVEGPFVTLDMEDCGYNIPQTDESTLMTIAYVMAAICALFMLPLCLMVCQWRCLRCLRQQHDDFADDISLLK
pIC50: −log10 of the molar value.
PARAMETER_MEASURED: pIC50

COC(=O)[C@@H](COC(C)(C)C)NC(=O)CC[C@@H](C1CCCCC1)N1Cc2cc(Oc3ccccc3)ncc2N=C1N	6.72

a. CC(C)(C)CCN(CCNS(N)(=O)=O)C(=O)CC[C@@H](C1CCCCC1)N1Cc2cc(Oc3ccccc3)ncc2N=C1N
b. CC(C)(C)OC[C@@H](NC(=O)CC[C@@H](C1CCCCC1)N1Cc2cc(Oc3ccccc3)ncc2N=C1N)C(=O)N1CCCCC1
Lab notebook, comparison: a versus b , higher pIC50 goes to which? Answer with the label corresponding to your selection.
b
(b: 6.96, a: 6.74)
